- experimental.system: α7-5HT3 W77F (Homo sapiens, UniProt P36544, M226I/T225I/W77F)
- Construct: expressed in transfected cells; host or cells: HEK 293 cells (ATCC CRL-1573)
- Sequence (P36544 with tags, fused parts or gaps W77F/T225I/M226I): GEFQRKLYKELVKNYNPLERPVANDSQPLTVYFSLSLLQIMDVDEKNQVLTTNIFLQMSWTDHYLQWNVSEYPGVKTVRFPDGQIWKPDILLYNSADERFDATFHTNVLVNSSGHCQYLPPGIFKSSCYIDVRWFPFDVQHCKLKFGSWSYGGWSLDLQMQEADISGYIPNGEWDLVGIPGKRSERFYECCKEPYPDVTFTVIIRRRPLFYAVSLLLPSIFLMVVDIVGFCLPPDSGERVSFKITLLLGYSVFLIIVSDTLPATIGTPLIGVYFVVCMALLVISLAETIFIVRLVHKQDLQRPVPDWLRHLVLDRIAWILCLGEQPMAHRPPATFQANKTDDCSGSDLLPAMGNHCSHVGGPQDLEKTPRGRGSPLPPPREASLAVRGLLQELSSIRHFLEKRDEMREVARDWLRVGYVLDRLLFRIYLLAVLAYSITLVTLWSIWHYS
- procedure.summary: fluorescence membrane potential (MP) assay, HEK 293 cells
- Assay type: cell-based, human/mouse
- protocol.conditions: α7 W77F, IPD 5HT3; value (s.e.m.); read-out: EC50-MP
experimental.readout: EC50 (µM)
One number for each entry, in µM.

## Task Data request, read-out EC50, for O=C(N[C@@H]1CN2CCC1CC2)c1ccc(-c2cccs2)cc1 [Compound 34S]
## Result 1.4

---

- experimental.system: α7-GABA C L141F (Homo sapiens, UniProt P36544, L141F)
- Construct: expressed in transfected cells; host or cells: HEK 293 cells
- Sequence (P36544 with tags, fused parts or gaps L141F): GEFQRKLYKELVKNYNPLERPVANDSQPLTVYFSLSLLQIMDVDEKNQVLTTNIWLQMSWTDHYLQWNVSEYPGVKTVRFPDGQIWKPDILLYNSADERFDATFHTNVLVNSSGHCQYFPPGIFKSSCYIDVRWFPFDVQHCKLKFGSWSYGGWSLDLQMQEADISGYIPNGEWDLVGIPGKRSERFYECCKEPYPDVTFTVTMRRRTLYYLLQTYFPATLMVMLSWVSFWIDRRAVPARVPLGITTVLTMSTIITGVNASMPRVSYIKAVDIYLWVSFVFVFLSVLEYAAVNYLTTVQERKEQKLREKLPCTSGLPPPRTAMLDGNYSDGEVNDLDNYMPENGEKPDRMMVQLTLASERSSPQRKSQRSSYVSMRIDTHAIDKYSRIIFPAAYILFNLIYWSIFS
- procedure.summary: whole cell voltage clamp recordings (Iss, Ipeak)
- Assay type: cell-based
- protocol.conditions: EC50-Ipeak, peak current, IPD GABAC
experimental.readout: EC50

## Task Data request, read-out EC50, for COc1ccc(OC)c(C(=O)N[C@@H]2CN3CCC2CC3)c1 [Compound 89S]
## Result 8.8 µM

---

- experimental.system: α7-5HT3 W77F (Homo sapiens, UniProt P36544, M226I/T225I/W77F)
- Construct: expressed in transfected cells; host or cells: HEK 293 cells (ATCC CRL-1573)
- procedure.summary: whole cell voltage clamp recordings (Iss, Ipeak)
- Format: cell-based, human/mouse
- protocol.conditions: read-out: EC50-Ipeak, peak current, IPD 5HT3
Where a name gives a salt, the structure may show the parent alone.
experimental.readout: EC50

## Task For O=C(N[C@@H]1CN2CCC1CC2)c1ccc(-c2ccccc2)cc1 [Compound 28S, TFA] , what is its reported EC50?
## Result 11.3 µM

---

- experimental.system: α7-5HT3 W77F (Homo sapiens, UniProt P36544, M226I/T225I/W77F)
- Construct: expressed in transfected cells; host or cells: HEK 293 cells (ATCC CRL-1573)
- procedure.summary: fluorescence membrane potential (MP) assay, HEK 293 cells
- Assay type: cell-based, human/mouse
- protocol.conditions: read-out: EC50-MP; α7 W77F, IPD 5HT3; value (s.e.m.)
Structures can show the parent of a compound that is named as a salt.
experimental.readout: pEC50
One number for each entry, as −log10 of the molar value.

## Task Fill in: pEC50 of O=C(N[C@@H]1CN2CCC1CC2)c1ccc(-c2ccc(F)cc2)cc1 [Compound 132S, TFA] is ___
## Result 5.37

---

- experimental.system: α7-5HT3 W77F (Homo sapiens, UniProt P36544, M226I/T225I/W77F)
- Construct: expressed in transfected cells; host or cells: HEK 293 cells (ATCC CRL-1573)
- procedure.summary: whole cell voltage clamp recordings (Iss, Ipeak)
- Assay type: cell-based, human/mouse
- protocol.conditions: read-out: EC50-Iss, steady state current, IPD 5HT3
Structures can show the parent of a compound that is named as a salt.
experimental.readout: pEC50
Numbers only, as −log10 of the molar value.

## Task What measured pEC50 goes with O=C(N[C@@H]1CN2CCC1CC2)c1ccc(-c2ccccc2)cc1 [Compound 28S, TFA] ?
## Result 5.62

---

- experimental.system: α7-5HT3 wt chimeric receptor (Homo sapiens, UniProt P36544, M226I/T225I)
- Construct: expressed in transfected cells; host or cells: HEK 293 cells
- Sequence (P36544 with tags, fused parts or gaps T225I/M226I): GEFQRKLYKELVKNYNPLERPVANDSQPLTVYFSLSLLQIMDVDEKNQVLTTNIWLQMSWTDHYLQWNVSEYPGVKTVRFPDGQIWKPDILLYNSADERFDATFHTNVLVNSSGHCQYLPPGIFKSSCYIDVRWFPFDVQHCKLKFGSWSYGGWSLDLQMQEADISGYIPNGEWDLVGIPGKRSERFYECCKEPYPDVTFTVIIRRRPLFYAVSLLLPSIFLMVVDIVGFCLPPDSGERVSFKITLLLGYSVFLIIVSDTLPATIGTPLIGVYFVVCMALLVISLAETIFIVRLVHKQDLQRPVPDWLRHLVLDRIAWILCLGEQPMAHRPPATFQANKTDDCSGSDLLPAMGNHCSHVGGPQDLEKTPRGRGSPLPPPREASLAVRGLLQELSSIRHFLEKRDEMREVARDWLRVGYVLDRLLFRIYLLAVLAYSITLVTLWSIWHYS
- procedure.summary: whole cell voltage clamp recordings (Iss, Ipeak)
- Format: cell-based, human/mouse
- protocol.conditions: steady state current, IPD 5HT3, read-out: EC50-Iss
experimental.readout: pEC50
Answers are plain numbers, as −log10 of the molar value.

## Task Could you tell me which pEC50 is on file for O=C(N[C@H]1CN2CCC1CC2)c1ccc(Cl)cc1 ?
## Result 7.05
